test system: IL-6; assay: Inhibition of IL-6 production by stimulated human peripheral blood leukocytes in vitro; format: cell-based; conditions: Homo sapiens, Leukocyte, PBL, LPS stimulated, compound 50 μM; read-out: Percentage of inhibition of IL-6 production
Each item that follows carries a reported inhibition at 50 µM.
// return numeric value only (unit: %, not printed)

- COMPOUND: "CC[C@H]1OC(=O)[C@H](C)[C@@H](O[C@H]2C[C@@](C)(OC)[C@@H](O)[C@H](C)O2)[C@H](C)[C@@H](O[C@@H]2O[C@H](C)C[C@H](N(C)C)[C@H]2O)[C@](C)(O)C[C@@H](C)CN(C(=O)NC(C)c2cccc3ccccc23)[C@H](C)[C@@H](O)[C@]1(C)O (stereo partly shown) [Compound 12]"
  EXPERIMENTAL_TARGET: "IL-6"
  QUANTITATIVE_RESULT: 100
- COMPOUND: "CC[C@H]1OC(=O)[C@H](C)[C@@H](O)[C@H](C)[C@@H](O[C@@H]2O[C@H](C)C[C@H](N(C)C)[C@H]2O)[C@](C)(O)C[C@@H](C)CN(C(=O)Nc2cccc(C(F)(F)F)c2)[C@H](C)[C@@H](O)[C@]1(C)O [Compound 13]"
  EXPERIMENTAL_TARGET: "IL-6"
  QUANTITATIVE_RESULT: 0
- COMPOUND: "CC[C@H]1OC(=O)[C@H](C)[C@@H](O[C@H]2C[C@@](C)(OC)[C@@H](O)[C@H](C)O2)[C@H](C)[C@@H](O[C@@H]2O[C@H](C)C[C@H](N(C)C)[C@H]2O)[C@](C)(O)C[C@@H](C)CN(C)[C@H](C)[C@@H](O)[C@]1(C)O [Azithromycin, azithromycin, reference compound]"
  EXPERIMENTAL_TARGET: "IL-6"
  QUANTITATIVE_RESULT: 40

Lab note: next compound to report on.
Need inhibition at 50 µM, item CC[C@H]1OC(=O)[C@H](C)[C@@H](O[C@H]2C[C@@](C)(OC)[C@@H](O)[C@H](C)O2)[C@H](C)[C@@H](O[C@@H]2O[C@H](C)C[C@H](N(C)C)[C@H]2O)[C@](C)(O)C[C@@H](C)CN(C(=S)Nc2ccccc2F)[C@H](C)[C@@H](O)[C@]1(C)O [Compound 5]
72
